Provide the reported Enzyme Activity Endpoint Assay: IgG of each item.
Target: pooled human IgG

Ask: Please look up its Enzyme Activity Endpoint Assay: IgG: PRT-32 (protein) MANQEIRYSEVTPYHVTSVWTKGVTPPANFTQGEDVFHAPYVANQGWYDITKTFNGKDDLLCGAATAGNMLHWWFDQNKDQIKRYLEEHPEKQKINFNGEQMFDVKEAIDTKNHQLDSKLFEYFKEKAFPYLSTKHLGVFPDHVIDMFINGYRLSLTNHGPTPVKEGSKDPRGGIFDAVFTRGDQSKLLTSRHDFKEKNLKEISDLIKKELTEGKALGLSHTYANVRINHVINLWGADFDSNGNLKAIYVTDSDSNASIGMKKYFVGVNSAGKVAISAKEIKEDNIGAQVLGLFTLSTGQDIWNQTN
Result: 14 ng/µL

Ask: Now give it for PRT-8 (protein) MANQEIRYSEVTPYHVTSVWTKGVTPPTNFTQGEDVFHAPYIANQGWYDITKTFNGKDDLLCGAATAGNMLHWWFDQNKDQIERYLKEHPEKQKINFNGEQMFDVKEAIDTKNSQLDSKLFEYFKEKAFPYLSTKHLGVFPDHVLDMFINGYRLSLTNHGPTPVKEGSKDPRGGIFDAVFTRGDQSKLLTSRHDFKEKNLKEISDLIKQELTEGKALGLSHTYANVRINHVINLWGADFDSNGNLEAIYVTDSDSNASIGMKKYFVGVNSAGKVAISAKEIKDDNIGAQVLGLFTLSTGQDIWNQTN too.
Result: 16 ng/µL

Ask: Now give it for PRT-33 (protein) MANQEIRYSEVTPYHVTSVWTKGVTPPANFTQGEDVFHAPYVANQGWYDITKTFNGKDDLLCGAATAGNMLHWWFDQNKDQIKRYLKEHPEKQKINFNGEQMFDVKEAIDTKNHQLDSKLFEYFKEKAFPYLSTKHLGVFPDHVIDMFINGYRLSLTNHGPTPVKEGSKDPRGGIFDAVFTRGDQSKLLTSRHDFKEKNLKEISDLIKKELTEGKALGLSHTYANVRINHVINLWGADFDSNGNLKAIYVTDSDSNASIGMKKYFVGVNSAGKVAISAKEIKEDNIGAQVLGLFTLSTGQDSWNQTN too.
Result: 17 ng/µL

Ask: Now give it for PRT-18 (protein) MANQEIRYSEETPYHVTSVWTKGVTPPTNFTQGEDVFHAPYIANQGWYDITKTFNGKDDLLCGAATAGNMLHWWFDQNKEEIEKYLEEHPEKQKINFNGEQMFDVKEVIDTKDSQLDSKLFEYFKEKAFPYLSTKHLGVFPDHVIDMFINGYRLNLTNHGPTPVKEGSKDPRGGIFDAVFTRGDQSKLLTERHDFKEKTLKEISQLIKQELTEGKALGLSHTYANVRINHVINLWGADFDSEGNLEAIYVTDSDSNASIGMKKYFVGVNSAGKVAISAKEIEEDNIGAQVLGLFTLSTGQDIWEQTN too.
Result: 12 ng/µL

Ask: Now give it for PRT-38 (protein) MANQEIRYSEVTPYHVTSVWTKGVTPPANFTQGEDVFHAPYVANQGWYDITKTFNGKDDLLCGAATAGNMLHWWFDQNKDQIKRYLEEHPEKQKINFNGEQMFDVKEAIDTKNHQLDSKLFEYFKEKAFPYLSTKHLGVFPDHVIDMFINGYRLSLTNHGPTPVKEGSKDPRGGIFDAVFTRGDQSKLLTSRHDFKEKNLKEISDLIKKELTEGKALGLSHTYANVRINHVINLWGADFDSNGNLEAIYVTDSDSNASIGMKKYFVGVNSAGKVAISAKEIKEDNIGAQVLGLFTLSTGQDSWNQTN too.
Result: 14 ng/µL

Ask: Now give it for PRT-539 (protein) MANQEIRYSKNENPNVTIKWVHGIGEPTQAEKEKIEFYWYETNTTKFFNNRKVTHLGDSNQCWAKTASNMLHWWFEQNKENINKYIEKKNITGKINFNGEQMFDVKEGIDDNQEKEKSYIANTFRTKKAHNLSTKHKGDYIISGLAWYLYGLNNFKNAHGPTPVKKKPKFYGPALFKDVFNRGDGNTPIKEETDFKEYTKKEFEDILKEALDSKKAIGINIYGSNVGYGHAITLWGAAFDEDNNIIAIYVVDNNFKFENRIFPYGIWYEKEGRPYLFNYEINSFVKNRYVGEITTLDKGEAQWQETNLEHHHHHH too.
Result: 1400 ng/µL

Ask: Now give it for PRT-53 (protein) MANQEIRYSEVTPYHVTSVWTKGVTPPANFTQGEDVFHAPYVANQGWYDITKTFNGKDDLLCGAATAGNMLHWWFDQNKDQIDRYLEEHPEKQKINFNGEQMFDVKEAIDTKNDQLDSKLFEYFKEKAFPYLSTKHLGVFPDLVIDMFINGYRLSLTNHGPTPVKEGSKDPRGGIFDAVFTRGDQSKLLTSRHDFKEKNLKEISDLIKKELTEGKALGLSHTYANVRINHVINLWGADFDSNGNLKAIYVTDSDSNASIGMKKYFVGVNSAGKVAISAKEIKEDNIGAQVLGLFTLSTGQDSWNQTN too.
Result: 9 ng/µL

Ask: Now give it for PRT-5 (protein) MANQEIRYSEVTPYHVTSVWTKGVTPPANFTQGEDVFHAPYVANQGWYDITKTFNGKDDLLCGAATAGNMLHWWFDQNKDQIERYLKKHPEKQKINFNGEQMFDVKEAIDTKNSQLDSKLFEYFKEKAFPYLSTKHLGVFPDHVIDMFINGYRLSLTNHGPTPVKEGSKDPRGGIFDAVFTRGDQSKLLTSRHDFKEKNLKEISDLIKKELTEGKALGLSHTYANVRINHVINLWGADFDSNGNLEAIYVTDSDSNASIGMKKYFVGVNSAGKVAISAKEIKEDNIGAQVLGLFTLSTGQDIWNQTN too.
Result: 18 ng/µL
